- Target Or Test System: L-lactate dehydrogenase (Plasmodium falciparum (isolate CDC / Honduras))
- Test: PfLDH activity inhibition – cell lysate, 3D7 strain, counter-screen for P. falciparum growth inhibition project (AID 2304);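 note: 0% = vehicle and 100% = reference inhibitor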
- Assay Context: P. falciparum 3D7 crude extract, LDH APAD/NBT absorbance; at 2 µM; stronger effect = higher value
Measured Metric: inhibition (%)
Give the number; % is assumed, so skip it.

Sample records with inhibition:
inhibition reading for Cc1ccc(NC(=O)c2cccc(N3CCN(c4ccncc4)CC3)c2)cc1F : -1

inhibition reading for c1ccc2c(c1)CN(Cc1cc3ccccc3[nH]1)CC1(CCN(Cc3c[nH]c4cnccc34)CC1)O2 : -3

inhibition reading for O=C(Nc1cccc(C(F)(F)F)c1)Nc1ccc(Cl)c(C(F)(F)F)c1 : -6

inhibition reading for CC1(C)CCNc2cc(NC(=O)c3ccc(-c4ncccc4C(F)(F)F)cc3)ccc21 : -3

inhibition reading for Nc1nc(N)c2c(Cl)c(CNc3cccc(C(=O)O)c3)ccc2n1 : 7

New cases:
inhibition reading for Cc1cc(N[C@@H](CC(C)C)C(=O)NCCc2ccccc2)nc(NCC2CCCCC2)n1 : -1

inhibition reading for COc1cc(Cc2cnc(N)nc2N)ccc1OCc1cccc(Oc2ccccc2)c1 : 0

inhibition reading for Cc1ccc(C(=O)Nc2ccc(C)c(OC3CCN(Cc4ccco4)C3)c2)cc1 (stereo not given) : 3

inhibition reading for COc1ccc(NC(=O)[C@H](Cc2ccccc2)Nc2cc(C)nc(NCC3CCCCC3)n2)cc1 : 1

inhibition reading for O=C(/C=C/c1ccc(Cl)c(Cl)c1)N1CCC(CCCN2CCC(c3c[nH]c4ccc(O)cc34)CC2)CC1 : 1

inhibition reading for CC(C)Nc1ccc(Nc2ccnc3cc4ccccc4cc23)cc1 : -3

====

Parameter: growth inhibition. Scope: all listed entries.
- Test: inhibition of 3D7 malaria parasite growth – strain 3D7 (AID 2306);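 note: 0% = DMSO wells and 100% = chloroquine plus artemisinin control wells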
- Assay Context: P. falciparum 3D7 erythrocytic growth, LDH absorbance, 72 h; at 2 µM; stronger effect = higher value
Activity calls are given as the source filed them. No rule for the calls is given here.

Sample records with growth inhibition:
growth inhibition reading for Cc1cccc2[nH]c(-c3ccc(-c4ccc(CNCC5CCCO5)cc4)cc3)nc12 (stereo not given) : 101% (active)

growth inhibition reading for Cc1cccc2[nH]c(-c3ccc(-c4ccc(CN5CCN(C6CCN(C)CC6)CC5)cc4)cc3)nc12 : 100% (active)

growth inhibition reading for O=C(CC(=O)C(F)(F)F)c1ccccc1[N+](=O)[O-] : 97% (active)

growth inhibition reading for S=C(Nc1cccc(Cl)c1)NC1CCN(c2ccnc3cc(Cl)ccc23)C1 (stereo not given) : 100% (active)

New cases:
growth inhibition reading for FC(F)(F)c1ccc2nc(-c3ccc(-c4cccc(CNCCN5CCNCC5)c4)s3)[nH]c2c1 : 91% (active)

growth inhibition reading for N#CC1(c2ccccc2)CCN(c2nc(NCCCN3CCCC3=O)nc(N3CCCC4CCCCC43)n2)CC1 (stereo not given) : 95% (active)

growth inhibition reading for CC(=NNC(=S)Nc1ccccc1Cl)c1ccccn1 : 100% (active)

====

- Test: inhibition of 3D7 malaria parasite growth – strain 3D7 (AID 2306);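 note: 0% = DMSO wells and 100% = chloroquine plus artemisinin control wells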
- Assay Context: P. falciparum 3D7 erythrocytic growth, LDH absorbance, 72 h; at 2 µM; stronger effect = higher value
Measured Metric: growth inhibition (%)
Give the number; % is assumed, so skip it.

Sample records with growth inhibition:
growth inhibition reading for O=C(CCCCCNC(=O)c1ccc(O)c(-c2ccc(Cl)c(Cl)c2)c1)NC1CCCCCC1 : 92

growth inhibition reading for CCOc1cc(C(=O)NC2CCN(Cc3ccccc3)C2)ccc1-c1nc2ccc(Cl)cc2[nH]1 (stereo not given) : 98

growth inhibition reading for Cc1cc(CNCCCCCCNCc2ccc(-c3ccccc3)cc2)ccc1O : 98

growth inhibition reading for O=C(/C=C/c1ccc(Cl)c(Cl)c1)NCC(CCCN1CCC(c2c[nH]c3ccccc23)CC1)c1ccccc1 (stereo not given) : 100

growth inhibition reading for O=C(C=Cc1ccc(Cl)c(Cl)c1)NCCCCCN1CCC(CCNS(=O)(=O)c2ccc(Br)cc2)CC1 : 91

Now consider the entry below.
growth inhibition reading for CC(C)N(CC(=O)c1ccc(O)c(C(=O)O)c1)Cc1ccccc1 : 97
